All figures here come from patent US8343987B2.

Listed here are molecules together with their documented IC50.
- Test Target: human neutrophil elastase (HNE) (Homo sapiens, UniProt P08246)
- Sequence (P08246 30-267): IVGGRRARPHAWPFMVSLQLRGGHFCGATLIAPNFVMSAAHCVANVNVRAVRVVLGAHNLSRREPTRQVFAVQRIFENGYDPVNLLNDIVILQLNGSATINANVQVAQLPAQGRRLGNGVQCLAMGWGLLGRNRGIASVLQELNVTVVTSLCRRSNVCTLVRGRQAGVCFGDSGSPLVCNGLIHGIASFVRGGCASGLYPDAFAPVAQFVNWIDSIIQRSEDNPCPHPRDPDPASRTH
- Experiment Notes: In vitro inhibition of HNE using a fluorogenic peptide substrate (Example I-A)
- Protocol Conditions: substrate MeOSuc-Ala-Ala-Pro-Val-AMC, continuous read-out, 384 MTP format
Assay Endpoint: IC50 (µM)

INSERT INTO assay_data (molecule, test_target, assay_endpoint, result) VALUES
  ('CC(=O)C1=C(C)N(c2cccc(C(F)(F)F)c2)C(=O)N(Cc2ccc(C(CC(C)C)C(=O)O)cc2)C1c1ccc(C#N)cc1 (stereo not shown) [Example 19]', 'human neutrophil elastase (HNE) (Homo sapiens, UniProt P08246)', 'IC50', 0.02),
  ('CC1=C(C(=O)c2ccco2)C(c2ccc(C#N)cc2)N(CC(=O)O)C(=O)N1c1cccc(C(F)(F)F)c1 (stereo not shown) [Example 29A]', 'human neutrophil elastase (HNE) (Homo sapiens, UniProt P08246)', 'IC50', 0.02),
  ('CC1=C(C#N)C(c2ccc(C#N)nc2)NC(=O)N1c1cccc(C(F)(F)F)c1 (stereo not shown) [Example 19A]', 'human neutrophil elastase (HNE) (Homo sapiens, UniProt P08246)', 'IC50', 0.07),
  ('CC1=C(C(=O)c2cccnc2)C(c2ccc(C#N)cc2)N(CC(=O)O)C(=O)N1c1cccc(C(F)(F)F)c1 (stereo not shown) [Example 31A]', 'human neutrophil elastase (HNE) (Homo sapiens, UniProt P08246)', 'IC50', 0.01);

====

Listed here are molecules together with their documented pIC50.
- Test Target: human neutrophil elastase (HNE) (Homo sapiens)
- Experiment Notes: In vitro inhibition of HNE using a fluorogenic peptide substrate (Example I-A)
- Protocol Conditions: substrate MeOSuc-Ala-Ala-Pro-Val-AMC, continuous read-out, 384 MTP format
pIC50: −log10 of the molar value.
Assay Endpoint: pIC50

INSERT INTO measurements (molecule, result) VALUES
  ('CC1=C(C(=O)c2cccnc2)C(c2ccc(C#N)cc2)NC(=O)N1c1cccc(C(F)(F)F)c1 (stereo not drawn) [Example 21A]', 7.22),
  ('CC(=O)C1=C(C)N(c2cccc(C(F)(F)F)c2)C(=O)N(CC(=O)NS(=O)(=O)c2ccc(C#N)cc2)[C@@H]1c1ccc(C#N)cc1', 8.00),
  ('CC(=O)C1=C(C)N(c2cccc(C(F)(F)F)c2)C(=O)N(Cc2ccc(C(=O)O)cc2)[C@@H]1c1ccc(C#N)cc1', 8.10),
  ('COC(=O)c1cccc(CN2C(=O)N(c3cccc(C(F)(F)F)c3)C(C)=C(C(C)=O)C2c2ccc(C#N)cc2)c1 (stereo not drawn)', 7.52),
  ('CC1=C(C(=O)c2cccnc2)C(c2ccc(C#N)cc2)N(CC(=O)NS(=O)(=O)CC(F)(F)F)C(=O)N1c1cccc(C(F)(F)F)c1 (stereo not drawn)', 7.70),
  ('CC1=C(C(=O)O)C(c2ccc(C#N)cc2)N(Cc2cccc(/C=C/C(=O)O)c2)C(=O)N1c1cccc(C(F)(F)F)c1 (stereo not drawn)', 6.92);

====

Listed here are compounds together with their documented IC50.
- Test Target: human neutrophil elastase (HNE) (Homo sapiens, UniProt P08246)
- Construct: purchased SERVA Electrophoresis GmbH, Heidelberg, Germany #20927.01
- Experiment Notes: In vitro inhibition of HNE using a fluorogenic peptide substrate (Example I-A)
- Assay type: biochemical
- Protocol Conditions: substrate MeOSuc-Ala-Ala-Pro-Val-AMC, continuous read-out, 384 MTP format
Assay Endpoint: IC50 (nM)

INSERT INTO results (compound, result) VALUES
  ('CC(=O)C1=C(C)N(c2cccc(C(F)(F)F)c2)C(=O)N(/C=C/C(=O)O)C1c1ccc(C#N)cc1 (stereo not shown)', 10),
  ('C=CCOC(=O)C1=C(C)N(c2cccc(C(F)(F)F)c2)C(=O)N(C2(C(=O)OCC)CC2)C1c1ccc(C#N)cc1 (stereo not shown)', 130),
  ('C=CCOC(=O)C1=C(C)N(c2cccc(C(F)(F)F)c2)C(=O)N(CC(=O)NS(=O)(=O)c2ccc(C(F)(F)F)cc2)C1c1ccc(C#N)cc1 (stereo not shown)', 70),
  ('CC1=C(C(=O)c2ccco2)C(c2ccc(C#N)cc2)N(Cc2cccc(C(=O)O)c2)C(=O)N1c1cccc(C(F)(F)F)c1 (stereo not shown)', 30);
